Test system: Staphylococcus aureus
Assay: Antibacterial activity was determined against gram positive organism, Staphylococcus aureus H228
Format: functional
Settings: Staphylococcus aureus; read-out: MIC
parameter: MIC (µg/mL)
Entry rule: numbers only, all in µg/mL.

>>> recordedvalue("CCn1cc(C(=O)O)c(=O)c2c(N)c(F)c(N3CCNC(C)C3)c(F)c21 (stereo unspecified)")
1.6
>>> recordedvalue("CCNCC1CCN(c2c(F)c(N)c3c(=O)c(C(=O)O)cn(CC)c3c2Cl)C1 (stereo unspecified)")
1.6
>>> recordedvalue("O=C(O)c1cn(C2CC2)c2c(F)c(N3CCNCC3)c(F)cc2c1=O")
0.4
>>> recordedvalue("O=C(O)c1cn(C2CC2)c2c(F)c(N3CCNCC3)c(F)c(O)c2c1=O")
1.6
>>> recordedvalue("NC1CCN(c2cc3c(c(O)c2F)c(=O)c(C(=O)O)cn3C2CC2)C1 (stereo unspecified)")
0.1
>>> recordedvalue("CCn1cc(C(=O)O)c(=O)c2c(N)c(F)c(N3CCNCC3)c(F)c21")
1.6

In: Entry CC1CN(c2c(F)cc3c(=O)c(C(=O)O)cn(C4CC4)c3c2Cl)CCN1 (stereo unspecified) : reported MIC = ?
Out: 0.2

In: MIC for CCNCC1CCN(c2cc3c(c(N)c2F)c(=O)c(C(=O)O)cn3C2CC2)C1 (stereo unspecified) ?
Out: 0.2

====

MIC by entry:
Test system: Bacteria
Assay: Antibacterial activity was determined against gram negative organism, Providencia rettgeri. M1771
Format: functional
Conditions: Bacteria; read-out: MIC
Remember to follow the number with its unit.

Consider the following illustrative entries.
>>> recordedvalue("CC1CN(c2c(F)cc3c(=O)c(C(=O)O)cn(C4CC4)c3c2F)CC(C)N1 (stereo not drawn)")
"0.2 µg/mL"
>>> recordedvalue("CCn1cc(C(=O)O)c(=O)c2cc(F)c(N3CCNC(C)C3)c(Cl)c21 (stereo not drawn)")
"0.8 µg/mL"
>>> recordedvalue("CCn1cc(C(=O)O)c(=O)c2c(N)c(F)c(N3CCNCC3)cc21")
"1.6 µg/mL"
>>> recordedvalue("CC1CN(c2c(F)c(N)c3c(=O)c(C(=O)O)cn(C4CC4)c3c2F)CCN1 (stereo not drawn)")
"0.05 µg/mL"

In: GET /values?readout=MIC&item= Nc1c(F)c(N2CCC(N)C2)c(F)c2c1c(=O)c(C(=O)O)cn2C1CC1 (stereo not drawn)
Out: 0.025 µg/mL

In: MIC for CCn1cc(C(=O)O)c(=O)c2c(N)c(F)c(N3CCNCC3)c(Cl)c21 ?
Out: 1.6 µg/mL

In: Any idea what MIC was measured for CCn1cc(C(=O)O)c(=O)c2c(O)c(F)c(N3CC(C)NC(C)C3)c(F)c21 (stereo not drawn) ?
Out: 6.3 µg/mL

In: Please give the measured MIC for this molecule: Nc1c(F)c(N2CCC(N)C2)cc2c1c(=O)c(C(=O)O)cn2C1CC1 (stereo not drawn)
Out: 0.05 µg/mL

In: Consider the molecule shown here: CCn1cc(C(=O)O)c(=O)c2c(O)c(F)c(N3CCC(N)C3)c(F)c21 (stereo not drawn) What is its recorded MIC?
Out: 0.4 µg/mL

In: I would be grateful if you could share the reported MIC for CCn1cc(C(=O)O)c(=O)c2cc(F)c(N3CCNCC3)c(F)c21 .
Out: 0.2 µg/mL

In: Which MIC reading was recorded for the molecule CC1CN(c2cc3c(cc2F)c(=O)c(C(=O)O)cn3-c2ccc(F)cc2F)CCN1 (stereo not drawn) [TEMAFLOXACIN] ?
Out: 0.2 µg/mL

In: Fill in: MIC of CCn1cc(C(=O)O)c(=O)c2cc(F)c(N3CCNC(C)C3)c(F)c21 (stereo not drawn) [LOMEFLOXACIN] is ___
Out: 0.4 µg/mL

In: For the molecule CC1CN(c2c(F)cc3c(=O)c(C(=O)O)cn(C4CC4)c3c2Cl)CCN1 (stereo not drawn) , what MIC is on record?
Out: 0.2 µg/mL

Value source: ChEMBL document CHEMBL1125826
